Reported bioavailability values for the following compounds.
assay remarks: Rodent pharmacokinetics (rat PK)
Type: in vivo
condition summary: po, dosed intravenously or orally by gavage, plasma, read-out: F % (bioavailability)

Cn1nc(C2CCC(=O)NC2=O)c2cccc([C@H]3CCN(C[C@H]4CC[C@H](n5cc6cc(NC(=O)c7cncc(C#N)c7)c(C(C)(C)O)cc6n5)CC4)C[C@@H]3F)c21 (single isomer, unassigned): ≥ 5%

Okay, next one:
Asked: Which bioavailability value belongs to CN(C[C@H]1CC[C@H](c2nc3cc(C(C)(C)O)c(NC(=O)c4cncc(C(F)(F)F)n4)cc3s2)CC1)[C@@H]1CCN(c2cccc3c2n(C)c(=O)n3C2CCC(=O)NC2=O)C[C@@H]1F (single isomer, unassigned) ?
Given back: ≥ 5%

###

target entity: IRAK4 (Homo sapiens, UniProt Q9NWZ3)
Construct: endogenous in cells; host or cells: OCI-LY10
Sequence (Q9NWZ3 1-460): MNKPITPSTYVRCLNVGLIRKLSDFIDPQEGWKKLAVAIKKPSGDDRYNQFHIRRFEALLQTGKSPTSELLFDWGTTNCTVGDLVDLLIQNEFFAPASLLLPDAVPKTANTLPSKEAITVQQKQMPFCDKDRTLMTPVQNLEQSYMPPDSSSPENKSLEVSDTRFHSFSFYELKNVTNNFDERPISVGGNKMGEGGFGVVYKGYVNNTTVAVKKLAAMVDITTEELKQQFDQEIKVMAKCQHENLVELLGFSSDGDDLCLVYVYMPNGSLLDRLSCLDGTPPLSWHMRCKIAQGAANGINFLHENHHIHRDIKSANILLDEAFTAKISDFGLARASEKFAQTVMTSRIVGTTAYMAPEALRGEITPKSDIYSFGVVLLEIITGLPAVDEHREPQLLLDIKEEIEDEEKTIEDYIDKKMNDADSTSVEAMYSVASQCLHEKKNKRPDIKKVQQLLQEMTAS
assay remarks: IRAK4 MSD degradation in OCI-LY10
Assay type: cell-based
condition summary: OCI-LY10 cells, 24 hrs, Meso Scale Discovery
property: DC50

// worked examples, DC50 included
CN(C[C@H]1CC[C@H](c2cn3cc(NC(=O)c4cncc(C(F)(F)F)n4)c(C(C)(C)O)cc3n2)CC1)[C@@H]1CCN(c2cccc3c2n(C)c(=O)n3C2CCC(=O)NC2=O)C[C@@H]1F (single isomer, unassigned): < 10 nM
Cn1c(=O)n(C2CCC(=O)NC2=O)c2cccc([C@H]3CCN(C[C@H]4CC[C@H](n5cc6cc(NC(=O)c7cccc(C(F)(F)F)n7)c(C#N)cc6n5)CC4)C[C@@H]3F)c21 (single isomer, unassigned): < 10 nM
CN(C[C@H]1CC[C@H](n2cc3cc(NC(=O)c4cccc(C(F)(F)F)n4)ncc3n2)CC1)[C@@H]1CCN(c2cccc3c2n(C)c(=O)n3C2CCC(=O)NC2=O)C[C@@H]1F (stereo partly shown): < 10 nM
Cc1nn(C2CCC(=O)NC2=O)c2cccc(N3CC(N4CCN([C@H]5CC[C@H](n6cc(NC(=O)c7cnn8ccc(N9C[C@H]%10C[C@@H]9CO%10)nc78)c(C(F)F)n6)CC5)CC4)C3)c12 (stereo partly shown): < 10 nM
COc1ccc2c(c1N1CC3(CCN(C[C@H]4CC[C@H](n5cc6cc(NC(=O)c7cncc(C#N)c7)c(C(C)(C)O)cc6n5)CC4)CC3(F)F)C1)n(C)c(=O)n2C1CCC(=O)NC1=O (mixture of isomers): < 10 nM

Asked: Requested read-out DC50, target or system IRAK4 (Homo sapiens, UniProt Q9NWZ3), entry COc1cc2nn([C@H]3CC[C@H](CN4CCN(c5cccc6c5c(C)nn6C5CCC(=O)NC5=O)CC4)CC3)cc2cc1NC(=O)c1cncc(C#N)c1 (stereo partly shown)
Given back: 10 to 100 nM

Asked: Next record, please: CN(C[C@H]1CC[C@H](n2cc(NC(=O)c3cnn4ccc(N5C[C@H]6C[C@@H]5CO6)nc34)c(C(F)F)n2)CC1)[C@H]1CCN(c2cccc3c2n(C)c(=O)n3C2CCC(=O)NC2=O)C[C@@H]1F (single isomer, unassigned)
Given back: < 10 nM

Asked: What do you get for Cn1c(=O)n(C2CCC(=O)NC2=O)c2cccc(CCCOC[C@H]3CC[C@H](n4cc(NC(=O)c5cnn6ccc(N7C[C@H]8C[C@@H]7CO8)nc56)c(C(F)F)n4)CC3)c21 (stereo partly shown) ?
Given back: > 200 nM

Asked: Now give it for Cn1c(=O)n(C2CCC(=O)NC2=O)c2cccc([C@@H]3CCN(C[C@H]4CC[C@H](n5cc6cc(NC(=O)c7cncc(C(F)F)n7)ccc6n5)CC4)C[C@H]3F)c21 (stereo partly shown) too.
Given back: < 10 nM

Asked: # iterate: COc1cc2nn([C@H]3CC[C@H](CN4CCC5(CN(c6cccc7c6n(C)c(=O)n7C6CCC(=O)NC6=O)C5)C(F)(F)C4)CC3)cc2cc1NC(=O)c1cncc(C#N)c1 (stereo partly shown)
Given back: < 10 nM
